Measured TGI accompanies every entry in the list below.
# System: DMS 114 small cell lung
# PROTOCOL_NOTES: NCI tumour cell line growth inhibition, 48 h

COMPOUND	TARGET_OR_SYSTEM	TGI
CCCCCCCCc1cc2c(O)c(c1)Cc1cc(CCCCCCCC)cc(c1O)Cc1cc(CCCCCCCC)cc(c1O)Cc1cc(CCCCCCCC)cc(c1O)Cc1cc(CCCCCCCC)cc(c1O)Cc1cc(CCCCCCCC)cc(c1O)C2	DMS 114 small cell lung	> 100 µM
Cc1cc2c(cc1C)[n+](=O)cc(C(=O)C/C(=N/NC(=S)NN)C(=O)Nc1cccc(C(F)(F)F)c1)n2[O-]	DMS 114 small cell lung	> 100 µM
Nc1c(S(=O)(=O)c2ccc(Cl)cc2)c2nc3ccccc3nc2n2ccnc12	DMS 114 small cell lung	> 100 µM
O=C(NCCCl)O/N=C/c1cccnc1	DMS 114 small cell lung	> 100 µM
O[C@H]1[C@H](O)[C@@H](O)CN2CC[C@H](O)[C@H]12	DMS 114 small cell lung	> 100 µM

Endpoint output: TGI of CCOC(=O)C(Br)=C1OC(=O)c2ccccc2-c2ccccc21 (mixture of isomers) . Value?
32.2 µM

Thanks! And CCOC(=O)/C=C1/C(CCCOCc2ccccc2)C2CCCC23CC2(CCN13)OCCO2 (centres undefined) ?
32.9 µM

Thanks! And CCOc1ccc(OCC(=O)O)c2c1CCCC2=O ?
> 100 µM

Thanks! And CCCCNCCCNCCCNC(=O)c1csc(-c2csc(CCNC(=O)C(NC(=O)C(C)C(O)C(C)NC(=O)C(NC(=O)c3nc(C(CC(N)=O)NCC(N)C(N)=O)nc(N)c3C)C(OC3OC(CO)C(O)C(O)C3OC3OC(CO)C(O)C(OC(N)=O)C3O)c3cnc[nH]3)C(C)O)n2)n1 (centres undefined) ?
8.73 µM

----------
# Test system: LOX IMVI melanoma
# PROTOCOL_NOTES: NCI tumour cell line growth inhibition, 48 h
Measured GI50 accompanies every entry in the list below.

Endpoint output: GI50 of O=C(Nc1ncc(Cc2cccc(C(F)(F)F)c2)s1)c1ccc2c(c1)OCCO2 . Value?
0.565 µM

Thanks! And NNc1ncnc2nc[nH]c12 ?
2.89 µM

Thanks! And COc1ccc(-c2c(C#N)c(N3CCOCC3)nc3[nH]c(=S)[nH]c(=S)c23)cc1OC ?
16.7 µM

----------
# Tested on: SK-MEL-5 melanoma
# PROTOCOL_NOTES: NCI tumour cell line growth inhibition, 48 h
METRIC_NAME: TGI

COMPOUND	TARGET_OR_SYSTEM	RESULT
COC(=O)C1=CN(CC2=CC(=O)C(C)=CC2=O)C=C(C(=O)OC)C1c1ccccc1OC	SK-MEL-5 melanoma	30.4 µM
CCOC(=O)CC/C(=N/Nc1ccc(Cl)cc1[N+](=O)[O-])C(=O)OCC	SK-MEL-5 melanoma	> 100 µM
CCCCCCCC(=O)OCC1OC(n2cc(F)c(=O)[nH]c2=O)C(N)C(OC(=O)CCCCCCC)C1O (stereo unspecified)	SK-MEL-5 melanoma	22.3 µM
Clc1ccc(C=NC23CC4CC(CC(C4)C2)C3)c(Cl)c1	SK-MEL-5 melanoma	> 10 µM
O=c1[nH]c(=O)n(C2CC(O)C(CO)O2)cc1OS(=O)(=O)C(F)(F)F (stereo unspecified)	SK-MEL-5 melanoma	> 100 µM
NC(N)=Nc1nc2ccccc2o1	SK-MEL-5 melanoma	> 100 µM

Now turn to the next compound.
Endpoint output: TGI of O=C(CN1C(=O)CC(c2ccccc2)(c2ccccc2)C1=O)N1CCN(CCO)CC1 . Value?
> 100 µM

----------
Measured TGI accompanies every entry in the list below.
# Test system: NCI-H23 lung
# PROTOCOL_NOTES: NCI tumour cell line growth inhibition, 48 h

Notebook entry, NCI-H23 lung assay: TGI of NCCCn1c2c(c3ccc([N+](=O)[O-])cc3c1=O)C(=O)c1cc(I)ccc1-2 = ?
1.22 µM

Thanks! And O=C(NN1C(=O)CS(=O)(=O)C1c1ccc(C(F)(F)F)cc1)c1ccncc1 (stereo not given) ?
> 100 µM

Thanks! And C=C(C)CNCCN ?
> 100 µM

Thanks! And CCc1c(O)c(O)c(C(C)=O)c2c(O)c(-c3c(C)cc4c(CC)c(O)c(O)c(C(C)=O)c4c3O)c(C)cc12 ?
16.1 µM

----------
# Test system: HCC-2998 colon
# PROTOCOL_NOTES: NCI tumour cell line growth inhibition, 48 h
Measured TGI accompanies every entry in the list below.

Consider the following illustrative entries.
MOLECULE	METRIC_NAME	RESULT
O=C1/C(=C/c2ccc(Cl)cc2)CCCc2ccccc21	TGI	36.7 µM
Oc1oc(C(=C2N=c3ccccc3=N2)c2ccc(Cl)cc2)c(O)c1-c1ccc(Cl)cc1	TGI	20.8 µM

Endpoint output: TGI of CCN(Cc1c(F)cccc1OC)c1ccc(CO)c(Cl)c1 . Value?
22.3 µM

Thanks! And Nc1c(C(=O)Nc2ccccn2)sc2nc3c(cc12)C(=O)CCC3 ?
> 100 µM

Thanks! And COc1cc(/C=C2\CCCCC3=C2N=C2SC(C)=CN2C3c2cc(OC)c(OC)c(OC)c2)cc(OC)c1OC (stereo not given) ?
> 100 µM

----------
# Test system: UACC-62 melanoma
# PROTOCOL_NOTES: NCI tumour cell line growth inhibition, 48 h
METRIC_NAME: TGI

Endpoint output: TGI of CC12c3ccccc3C(OC=O)(c3ccccc31)C1(C)c3ccccc3C2(OC=O)c2ccccc21 . Value?
> 100 µM

Thanks! And O=c1[nH]c(O)c(C=Nc2ccc(-c3nc4ccccc4o3)cc2)c(=O)[nH]1 ?
> 100 µM

Thanks! And CCOC(=O)c1c(C)c2c(n1Cc1ccccc1)CSCC2=O ?
29.9 µM

Thanks! And CCOc1c(OC)cc(-c2nc3n(n2)C(=O)C(CC)S3)cc1OC (configuration not stated) ?
> 10 µM

Thanks! And CCCCCCCC(=O)OCC1OC(n2cc(F)c(=O)[nH]c2=O)C(N)C(OC(=O)CCCCCCC)C1O (configuration not stated) ?
32.4 µM

Thanks! And O=c1c2c(no[n+]2[O-])c2ccccc2n1-c1ccccc1 ?
13.7 µM

Thanks! And C=C1C(=O)[C@@]23CC[C@@H]4[C@@]5(C)CCC[C@@]4(OC5=O)[C@@]2(C)CC[C@@H]1C3 ?
3.3 µM

Thanks! And CN1CCN(Cc2cc3c(nn2)-c2ccccc2C3=O)CC1 ?
> 100 µM

Thanks! And CCOc1ccc(OCC(=O)O)c2c1CCCC2=O ?
> 100 µM

Thanks! And C=CCn1c(=O)ccn(/C(=C/C(=O)OCC)C(=O)OCC)c1=O ?
29.7 µM

Thanks! And COC(=O)C1=CN(CC2=CC(=O)C(C)=CC2=O)C=C(C(=O)OC)C1c1ccccc1OC ?
27.5 µM

Thanks! And O=C(OCC(Cl)(Cl)Cl)N1CC[C@H](C2CCCCC2)C1 ?
52.9 µM

Thanks! And C[C@@H]1CCC2[C@@H](C)[C@@H](O[C@H]3O[C@@H]4O[C@@]5(C)CCC6[C@H](C)CCC([C@H]3C)[C@]64OO5)O[C@@H]3O[C@@]4(C)CCC1[C@@]23OO4 (some centres not stated) ?
> 25 µM

Thanks! And [N-]=[N+]=CC(=O)OC(CCl)CCl ?
> 100 µM

Thanks! And COC(=O)c1ccccc1CC1Cc2cccc(C)c2C1=O (configuration not stated) ?
98.1 µM

Thanks! And Cc1cc(C)nc(NC(=S)Nc2ccc([N+](=O)[O-])cc2)c1 ?
> 100 µM

Thanks! And O=C1c2cccc3cccc(c23)C(=O)N1CCCNCCCCNCCCNCCCN1C(=O)c2cccc3cccc(c23)C1=O ?
1.6 µM

----------
# Tested on: M14 melanoma
# PROTOCOL_NOTES: NCI tumour cell line growth inhibition, 48 h
METRIC_NAME: TGI (µM)
Output spec: scalar in µM, unitless text.

Consider the following illustrative entries.
CHEMICAL_STRUCTURE	METRIC_NAME	RECORDED_NUMBER
O=C1C(=Nc2ccc(Nc3ccccc3)cc2)Oc2ccccc21	TGI	5.38
O=C1c2cccc3cccc(c23)C(=O)N1CCN(CCO)CCO	TGI	46.8

Notebook entry, M14 melanoma assay: TGI of CCCCOCCOC1=C(Cl)C(=O)c2c(O)ccc(O)c2C1=O = ?
0.525

----------
# Tested on: A549 NSCLC
# PROTOCOL_NOTES: NCI tumour cell line growth inhibition, 48 h; in the data active = GI50 below about 0.43 µM; inactive = the rest
Field 'call' accepts class 1 (active), class 0 (inactive)

COMPOUND	ASSIGNED_LABEL
NC(=O)c1cc(I)ccc1NC(=O)/C=C/c1ccccc1	class 0
CCN(CCNS(C)(=O)=O)c1ccc(N)c(C)c1	class 0
CCSc1nc(N=Cc2ccccc2O)c2cn[nH]c2n1	class 0
COc1cc2c(cc1OCCCCCN1CCN(c3ncnc4ccccc34)CC1)N=CC1CCCN1C2=O (stereo unspecified)	class 1
NC(=S)N/N=C/c1ncccc1O	class 0
C=C(C)C(C1C=C(CCC(C=O)=C(C)C)C(=O)O1)C1(OC)C=C(C)C(=O)O1 (stereo unspecified)	class 0

Tell me the assay call for COc1cc(/C=C2\CCCCC3=C2N=C2SC(C)=CN2C3c2cc(OC)c(OC)c(OC)c2)cc(OC)c1OC (stereo unspecified) please.
class 0

Thanks! And CCOC(=O)c1c(C)c2c(n1Cc1ccccc1)CSCC2=O ?
class 0

Thanks! And Cc1nc2c(Br)cc(Br)cc2c(=O)n1-c1nnc(-c2cccc(Cl)c2Cl)c(N)n1 ?
class 0

Thanks! And NCCCn1c2c(c3ccc([N+](=O)[O-])cc3c1=O)C(=O)c1cc(I)ccc1-2 ?
class 1

Thanks! And CN(C)CCN1CCC(Cc2ccccc2)CC1 ?
class 0
